# Test system: Cryptococcus neoformans
# Test context: Concentration 32 ug.mL-1; ASSAY_TEST Inhibition of Fungal Growth; detection method Resazurin; Absorption (OD600-OD570); plate type 384well; NBS; CORNING #3640
# Description: Antifungal activity against Cryptococcus neoformans H99 ATCC 208821 (CO-ADD:FG_002); MIC in YNB media using NBS plates, by Resazurin OD(600-570)
Results with a measured potency or affinity are listed apart.
Kindly state Inhibition for each of the entries shown.
One number for each entry, in %.

// below: answered compounds
| Compound | Readout label | Recorded measurement |
| --- | --- | --- |
| COc1ccccc1-c1c(C#N)c(=O)oc2c1ccc1ccccc12 | Inhibition | -7.79 |
| COc1nc2nc3c(c(N)c2cc1C#N)CN(Cc1ccccc1)CC3 | Inhibition | -69.67 |
| O=C(N/N=C/c1c[nH]c2ccccc12)c1ccc(Cl)cc1 | Inhibition | -0.09 |
| CC1CN(C)c2c(C#N)c(-c3ccccc3)c(C#N)c(=N)n21 (centres undefined) | Inhibition | -66.3 |
| COc1ccc(C2c3c(ccc4ccccc34)OC(=N)C2(Br)C#N)cc1 (centres undefined) | Inhibition | -84.01 |
| N#Cc1cc(C#N)c(N2CCCC2)nc1N1CCCC1 | Inhibition | -5.24 |
| COc1ccc(-c2cc(-c3cc4ccc(OC)cc4nc3Cl)cc(=O)[nH]2)cc1 | Inhibition | -66.65 |
| O=C(N/N=C/c1c[nH]c2ccccc12)c1ccco1 | Inhibition | -1.51 |

Take each entry in turn and give its Inhibition.
1. OCc1c(-c2ccc(Br)cc2)nc2ccccn12
2. Cn1c(CNNC(=O)c2ccco2)cc2ccccc21
3. CCOc1nc(N)c(C#N)cc1C#N.Cl
4. C#CCN(C)Cc1cc2cc(OCCC3CCN(Cc4ccccc4)CC3)ccc2n1C.Cl
5. NOC(=O)C1CCN(Cc2ccccc2)CC1

A:
1. -4.79
2. -3.17
3. -26.15
4. -83.46
5. -5.93

Take each entry in turn and give its Inhibition.
1. COc1nc2nc3c(c(N)c2cc1C#N)CCCC3.Cl
2. Nc1n[nH]c2c1C(c1ccccc1)CC(=O)N2 (centres undefined)
3. C=CCNc1nc(N)c(C#N)cc1C#N
4. COc1ccc(C2c3c(nc4c(c3N)CCCC4)Oc3ccc4ccccc4c32)cc1OC (centres undefined)

A:
[-96.28, -57.28, -39.35, 0.83]

Take each entry in turn and give its Inhibition.
1. Cc1ccc2nc(Cl)c(/C=N/OCc3ccccc3)cc2c1
2. CSC1=NC(=Cc2ccccc2)C(=O)N1C
3. Cn1ccnc1C1C2=C(CC(C)(C)CC2=O)Oc2nc3c(c(N)c21)CCC3 (centres undefined)
4. CN(N=O)C(=O)NC1(C(=O)O)CC1c1ccccc1 (centres undefined)
5. Cc1cnc2ccc(Br)cn12

A:
-9.27
-9.15
-62.95
-0.92
-0.9

###

# Tested on: Cryptococcus neoformans
# Test context: Concentration 32 ug.mL-1; ASSAY_TEST Inhibition of Fungal Growth; detection method Resazurin; Absorption (OD600-OD570); plate type 384well; NBS; CORNING #3640
Results with a measured potency or affinity are listed apart.
Label fulfilled when Inhibition is at or above -30%; otherwise label not fulfilled.

// known answers, use as guide
| Molecule | Class name |
| --- | --- |
| COc1ccc2c(c1)cc(CN(C)Cc1cn(Cc3ccccc3)nn1)n2C | not fulfilled |
| N#CC1=C(N)Oc2ccc3ccccc3c2C1 | not fulfilled |
| C#CCn1c(N)c(C#N)c2cc(O)ccc21 | not fulfilled |
| CC(=O)CC(=O)N1[C@@H]2C[C@H]3CCC2(CS1(=O)=O)C3(C)C | fulfilled |
| NNC(=O)c1cc2ccccc2n1Cc1ccccc1 | fulfilled |

Q: Could you please find out whether N#CC1=C(N)Oc2c(ccc3ccccc23)C1c1c(Cl)cccc1Cl (configuration not stated) has Inhibition that meets -30% or exceeds it?
A: fulfilled

Q: Could you please find out whether Cc1ccc(S(=O)(=O)N[C@H]2CC[C@H](O)CC2)cc1 has Inhibition that meets -30% or exceeds it?
A: not fulfilled
